Test: growth inhibition of PfHsp90-dependent yeast, primary screen, antimalarial PfHsp90 inhibitor project, S. cerevisiae, BacTiter-Glo luminescence (AID 504594);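 also: 0% = DMSO neutral control wells and 100% = 20 µM radicicol control wells; higher value means stronger growth inhibition because the sign is flipped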
Conditions: S. cerevisiae expressing PfHsp90, BacTiter-Glo growth, 48 h; at 9.4 µM; stronger effect = higher value
Out of some 2,000 compounds screened, fewer than 10 were called active. Not all results are given here.
Reported growth inhibition values are given for each entry in this list.
All answers are understood in %, so give the number only.

Use the examples below as a reference point.
O=C(O)c1ccccc1OCCOc1ccccc1 ... 3.6
Cc1ccc(C2=NOC(=O)/C2=C\C=C\c2ccccc2)cc1 ... 14.3
Cc1ccc2nc(N=C(N)N)nc(C)c2c1 ... -4.91
CC(C)NC(=O)C1(c2ccccc2)CCOCC1 ... -8.01
CC(=O)O[C@H]1C(=O)[C@@]2(C)[C@H]([C@H](OC(=O)c3ccccc3)[C@]3(O)C[C@H](OC(=O)[C@H](O)C(NC(=O)c4ccccc4)c4ccccc4)C(C)=C1C3(C)C)[C@]1(OC(C)=O)CO[C@@H]1C[C@@H]2O (stereo not given in full) ... 4.3
CN(Cc1c(C(=O)N(C)Cc2ccccc2)nc2ccccn12)CC1Cc2ccccc2O1 (stereo not given) ... 11.4

Item under review: CCOCCCNCc1cn(-c2ccc(F)cc2F)nc1-c1ccccc1C . Reported growth inhibition? 5.3

Also check CC(=O)C1=C(O)C(=O)OC1c1ccc(C)cc1 (stereo not given) 14.7

Also check O=C1CC(c2ccc(F)cc2)Cc2nc(NCC3CCCO3)ncc21 (stereo not given) 6.43

Also check CCOC(=O)C1(Cc2cccc(Cl)c2)CCCN(C2CCN(C(C)=O)CC2)C1 (stereo not given) -10.8

###

Reported growth inhibition values are given for each entry in this list.
Assay: growth inhibition of PfHsp90-dependent yeast, primary screen, antimalarial PfHsp90 inhibitor project, S. cerevisiae, BacTiter-Glo luminescence (AID 504594)
Settings: S. cerevisiae expressing PfHsp90, BacTiter-Glo growth, 48 h; at 9.4 µM; stronger effect = higher value
Screen size: about 2,000 compounds; fewer than 10 were called active. The list is a sample of the results.
All answers are understood in %, so give the number only.

Item under review: CCN1CCN(C(=S)c2ccc(OC)cc2)CC1 . Reported growth inhibition? -1.26

Also check Cn1cnc2c1c(=O)n(CC(O)CO)c(=O)n2C (centres undefined) -5.12

Also check CC(C)(C)OC(=O)COc1cc(OCC(=O)OC(C)(C)C)c2c(=O)cc(-c3ccccc3)oc2c1 -8.59

Also check O=c1nc2cccc3c2=c(/c1=C(\O)c1ccccc1)c1ccccc1c3=O -23.6

Also check COc1ccc(CCN2C(=O)CSC2c2ccc(OC)c(OC)c2)cc1OC (centres undefined) 2.57

Also check CC(C)c1ccc2[nH]c3c(c2c1)CCCC3=O 0.593

Also check O=c1cc(-c2ccccc2)oc2cc(OCc3ccccc3)cc(O)c12 2.87

Also check O=C(/C=C/c1ccc(F)cc1)NC(=S)N1CCCCC1c1cccnc1 (centres undefined) 4.68

Also check Cc1c(Cc2ccccc2)c(=O)oc2c(CN(C)C)c(O)c(Cl)cc12 -2.33

Also check COC(=O)c1cc(OC)c(OC)cc1NC(=O)CN1C(=O)c2ccccc2C1=O -14.3

###

Reported growth inhibition values are given for each entry in this list.
Test: growth inhibition of PfHsp90-dependent yeast, primary screen, antimalarial PfHsp90 inhibitor project, S. cerevisiae, BacTiter-Glo luminescence (AID 504594)
Details: S. cerevisiae expressing PfHsp90, BacTiter-Glo growth, 48 h; at 9.4 µM; stronger effect = higher value
Out of some 2,000 compounds screened, fewer than 10 were called active. A selection follows.

Use the examples below as a reference point.
CCSc1nc(O)c(C2OC(=O)c3c2ccc(OC)c3OC)c(=O)n1CC (stereo unspecified) ... 9.9% (inactive)
COc1cccc(C2CCCN2Cc2nc(CCC(C)C)no2)c1 (stereo unspecified) ... 11.4% (inactive)
Nc1nc2c(nc(SCc3ccccc3Br)n2C2OC(CO)C(O)C2O)c(=O)[nH]1 (stereo unspecified) ... -22.3% (inactive)

Item under review: COc1cccc(C2CC(=O)C3=C(C2)Nc2ccccc2N(C(=O)CCC(=O)O)C3c2ccc(F)cc2)c1 (stereo unspecified) . Reported growth inhibition? 3.39% (inactive)

###

Reported growth inhibition values are given for each entry in this list.
Experiment: growth inhibition of PfHsp90-dependent yeast, primary screen, antimalarial PfHsp90 inhibitor project, S. cerevisiae, BacTiter-Glo luminescence (AID 504594);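 also: 0% = DMSO neutral control wells and 100% = 20 µM radicicol control wells; higher value means stronger growth inhibition because the sign is flipped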
Conditions: S. cerevisiae expressing PfHsp90, BacTiter-Glo growth, 48 h; at 9.4 µM; stronger effect = higher value
Screen size: about 2,000 compounds; fewer than 10 were called active. A selection follows.
All answers are understood in %, so give the number only.

Use the examples below as a reference point.
Cn1c(=O)[nH]c2nnc(-c3ccc(Cl)c(Cl)c3)nc2c1=O ... 1.34
O=Cc1ccccc1Oc1ccccc1 ... -0.351
O=C(CN1C(=O)/C(=C/c2cccc(Br)c2)SC1=S)Nc1cccnc1 ... -5.73
Cc1ccccc1-c1nn(-c2ccc(F)cc2F)cc1CNCCN(C)C ... -12.6
O=CNC1CCCc2c1[nH]c1ccc(Cl)cc21 (stereo not drawn) ... -7.59

Item under review: COc1cccc(N2C(=O)[C@H]3C(C(=O)c4cnccn4)=NN[C@H]3C2=O)c1 . Reported growth inhibition? -1.02

Also check COc1ccc(C(=O)O)cc1F -4.03

Also check CC(=O)NC(Cc1c[nH]c2ccccc12)C(=O)N/N=C/c1ccccc1 (stereo not drawn) 13.4

Also check COc1cc2c(cc1O)CCN(C(=O)c1ccco1)C2C (stereo not drawn) 3.62

Also check COc1ccc(C(=O)CCN2CCc3cc(OC)c(OC)cc3C2)cc1 4.16

Also check COc1cc2c(cc1OC)C1(CCCC1)CNC2c1cccc([N+](=O)[O-])c1 (stereo not drawn) -7.37

Also check CC(C)Cc1ccc(C(C)C(=O)Nc2ccc(O)cc2)cc1 (stereo not drawn) -4.11

Also check Clc1ccc2c(c1)[C@H]1OCC[C@H]1[C@@H](c1ccco1)N2 1.42

###

Assay: growth inhibition of PfHsp90-dependent yeast, primary screen, antimalarial PfHsp90 inhibitor project, S. cerevisiae, BacTiter-Glo luminescence (AID 504594);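 also: 0% = DMSO neutral control wells and 100% = 20 µM radicicol control wells; higher value means stronger growth inhibition because the sign is flipped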
Settings: S. cerevisiae expressing PfHsp90, BacTiter-Glo growth, 48 h; at 9.4 µM; stronger effect = higher value
Fewer than 10 of roughly 2,000 compounds were called active. A selection follows.
parameterMeasured: growth inhibition (%)
All answers are understood in %, so give the number only.

Use the examples below as a reference point.
O=C(Nc1ccc(F)c([N+](=O)[O-])c1)c1ccc2c(c1)OCCO2 ... -4.38
CC1(c2ccccc2)CC(C)(C)N2C(=O)C(=O)c3cccc1c32 (stereo not drawn) ... -3.23

Item under review: COc1c2occc2c(OC)c2c(=O)cc(C(F)(F)C(F)(F)F)oc12 . Reported growth inhibition? -5.37

Also check Cc1cc(Cl)cc2c1NC(=O)[C@]21[C@@H]2C(=O)N(Cc3ccccc3)C(=O)[C@@H]2[C@@H]2CCCN21 6.75

Also check CCc1nc2ccccc2n1Cc1ccc(OC)c(OC)c1 2.55

Also check N#Cc1cc2c([nH]c1=O)CCCC2 8.49

Also check O=C1C(=O)N2C(=C1C(=O)N1CCCCCC1)c1ccccc1CC21CCCC1 -4.5

Also check O=C(O)c1ccc(OCCn2ccnc2)cc1 -4.4

Also check CC12CCC(C(=O)NCc3ccccn3)(OC1=O)C2(C)C (stereo not drawn) -9.47

Also check CC(C)CN1CCN(Cc2ccc3ncccc3c2)CC1CCO (stereo not drawn) -15.2

Also check COC(=O)CN1C(=S)N(c2ccc(F)cc2)C(=O)C1CC(=O)Nc1ccccc1 (stereo not drawn) 9.33

Also check CCC(C)n1ncn(-c2ccc(N3CCN(c4ccc(OCC5COC(Cn6cncn6)(c6ccc(Cl)cc6Cl)O5)cc4)CC3)cc2)c1=O (stereo not drawn) -1.74

Also check CCOC(=O)N1CCc2[nH]c3ccc(C)cc3c2C1 -0.0125

###

Assay: growth inhibition of PfHsp90-dependent yeast, primary screen, antimalarial PfHsp90 inhibitor project, S. cerevisiae, BacTiter-Glo luminescence (AID 504594);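 also: 0% = DMSO neutral control wells and 100% = 20 µM radicicol control wells; higher value means stronger growth inhibition because the sign is flipped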
Settings: S. cerevisiae expressing PfHsp90, BacTiter-Glo growth, 48 h; at 9.4 µM; stronger effect = higher value
Hit rate of the full screen: of about 2,000 compounds, fewer than 10 were called active. These entries were drawn from the full list.
Reported growth inhibition values are given for each entry in this list.
All answers are understood in %, so give the number only.

Use the examples below as a reference point.
O=[N+]([O-])c1ccc(O)c2ncccc12 ... 93.7
CC(=O)N1N=C(c2cccs2)CC1c1ccc(C)o1 (centres undefined) ... 15.9
CCCCOn1c(C)c(C(C)=O)c2c3no[n+]([O-])c3ccc21 ... -14.4
O=C1Nc2ccc3sc4ccccc4c3c2C1=O ... -1.28
Cc1c2c(nc3c(C)cccc13)OC(C)C2 (centres undefined) ... 8.19

Attention now shifts to the item below.
Item under review: Oc1ccc(COCc2ccccc2)c2cccnc12 . Reported growth inhibition? -6.18
